Test system: K562 (chronic myelogenous leukaemia)
Assay: Effect of compounds on tumor cell lines (assay of Latham et al.), K562
Type: cell-based
Conditions: Table 1; K562 cells, examined 96 hours after treatment, 1 μM to 100 μM in DMSO; read-out: K 562 potency (IC50)
Experimental: The effect of the compounds of the invention on tumor cells was determined by the assay described by Latham et al., Oncogene 12:827-837 (1996). Tumor cells K562 (chronic myelogenous leukaemia) or DU145 (prostate cancer) were plated in 12-well dishes at a cell density of 2.5×10^4 cells well. […] When necessary, the total number of viable cells was determined by trypsinizing the wells and counting the number of viable cells, as determined by trypan blue exclusion, using a hemacytometer. […]
test-readout: IC50

Query: Given the entry Cc1ccc(SC(=Cc2ccc(Oc3ccccc3)cc2)C(=O)c2ccc(Br)cc2)cc1 , report its measured IC50.
Reply: 10 to 25 µM

Query: What do you have for Cc1ccc(SC(=Cc2c(O)cc(O)cc2O)C(=O)c2ccc(Cl)cc2)cc1 ?
Reply: > 100 µM

Query: What do you get for CCOc1ccc(C=C(Sc2ccc(C)cc2)C(=O)c2ccc(Cl)cc2)cc1OC ?
Reply: 10 to 25 µM

Query: Same question for COc1cc(C=C(Sc2ccc(Br)cc2)C(=O)c2ccc(Br)cc2)ccc1F please.
Reply: 1 to 10 µM

Query: COc1ccc(C(=O)C(=Cc2ccc(OC)c(O)c2)Sc2ccc(F)cc2)cc1 , same question.
Reply: 1 to 10 µM

Query: COc1ccc(C=C(Sc2ccc(Br)cc2)C(=O)c2ccc(Cl)cc2)cc1 ?
Reply: 1 to 10 µM

Query: Moving on to O=C(C(=Cc1ccc(O)c([N+](=O)[O-])c1)Sc1c(F)c(F)c(F)c(F)c1F)c1ccc(Br)cc1
Reply: 10 to 25 µM

Query: Proceed to COc1ccc(C=C(Sc2ccc(C)cc2)C(=O)c2ccc(Cl)cc2)cc1
Reply: 1 to 10 µM

Query: Moving on to Cc1ccc(SC(=Cc2ccc(N(C)C)cc2)C(=O)c2ccc(Cl)cc2)cc1
Reply: > 100 µM

Query: Same again, this time with O=C(C(=Cc1ccc(O)cc1O)Sc1ccccc1Br)c1ccc(Cl)cc1
Reply: 50 to 100 µM

Kindly give each listed record's IC50.
1. COc1ccc(SC(=Cc2ccc(Cl)cc2Cl)C(=O)c2ccc(Br)cc2)cc1
2. O=C(C(=Cc1ccc(Br)cc1)Sc1ccccc1Br)c1ccc(Br)cc1
3. Cc1ccc(C)c(C=C(Sc2ccc(Br)cc2)C(=O)c2ccc(Cl)cc2)c1
4. Cc1ccc(SC(=Cc2ccc(-c3ccccc3)cc2)C(=O)c2ccc(Cl)cc2)cc1
5. CN(C)c1ccc(C=C(Sc2ccc(Br)cc2)C(=O)c2ccc(Cl)cc2)cc1
6. O=C(O)c1ccc(C(=O)C(=Cc2ccc(F)c([N+](=O)[O-])c2)Sc2c(F)c(F)c(F)c(F)c2F)cc1
7. O=C(C(=Cc1c(O)cc(O)cc1O)Sc1ccc(Br)cc1)c1ccc(Cl)cc1

Reply:
1 to 10 µM
1 to 10 µM
10 to 25 µM
25 to 50 µM
> 100 µM
≤ 1 µM
50 to 100 µM

This collection of values is drawn from patent US8808702B2.
